# Experimental System: Rabies virus glycoprotein G, strain CVS-11 (Challenge Virus Standard-11, ATCC VR 959) (Rabies virus, strain CVS-11)
# Experiment: cell-based or functional assay
Measured Quantity: CVS neutralizing antibody titre (RFFIT): IU/ml (IU/ml)
API: value field is a number in IU/ml; no unit string.

Record summary for 213-H7 15GS 213-H7 (VHH) EVQLVESGGGLVQAGGSLRLSCAASGRTLSSYRMGWFRQAPGKEREFISTISWNGRSTYYADSVKGRFIFSEDNAKNTVYLQMNSLKPEDTAVYYCAAALIGGYYSDVDAWSYWGPGTQVTVSSGGGGSGGGGSGGGGSEVQLVESGGGLVQAGGSLRLSCAASGRTLSSYRMGWFRQAPGKEREFISTISWNGRSTYYADSVKGRFIFSEDNAKNTVYLQMNSLKPEDTAVYYCAAALIGGYYSDVDAWSYWGPGTQVTVSS : reported CVS neutralizing antibody titre (RFFIT): IU/ml = 412

Quick note, CVS neutralizing antibody titre (RFFIT): IU/ml for 213-E6 5GS 213-E6 (VHH) EVQLVESGGGLVQAGASLRLSCAASGSTLSRYGVGWFRQAPGKERELVASVDWSGSRTYYADSVKGRFTISRDNAKNTGYLQMNSLKPDDTAVYYCAADSSVVPGIEKYDDWGLGTQVTVSSGGGGSEVQLVESGGGLVQAGASLRLSCAASGSTLSRYGVGWFRQAPGKERELVASVDWSGSRTYYADSVKGRFTISRDNAKNTGYLQMNSLKPDDTAVYYCAADSSVVPGIEKYDDWGLGTQVTVSS landed at 1290

Please fill in: CVS neutralizing antibody titre (RFFIT): IU/ml reported for 214-F8 15GS 214-F8 (VHH) EVQLVESGGDLVQAGGSLRLSCVASGSTYSINAMGWYRQAPGKLRELVAAFRTGGSTDYADSVKGRFTISRDTAKNTVYLQMNSLKPEDTAVYYCNAEVIYYPYDYWGQGTQVTVSSGGGGSGGGGSGGGGSEVQLVESGGDLVQAGGSLRLSCVASGSTYSINAMGWYRQAPGKLRELVAAFRTGGSTDYADSVKGRFTISRDTAKNTVYLQMNSLKPEDTAVYYCNAEVIYYPYDYWGQGTQVTVSS = 13
